Assay: Stability in human intestinal S9 fraction (HIS9)
Assay type: in vitro ADME
Conditions: human intestinal S9 0.4 mg protein/mL, 5 μM test compound, 37° C.
Assignment: determine reported CLint Intestinal S9 for the given compounds.
The answer is to be given in µL/min/mg; state only the numeric part.

Item CC[C@@H](C)OC(=O)[C@H](C)NP(=O)(OC[C@H]1OC[C@@H](n2ccc(N)nc2=O)O1)Oc1cccc(C2CCC2)c1 (single isomer, unassigned; dia-1) [33 dia-1] has what recorded CLint Intestinal S9?
27

Look at this compound and give its reported CLint Intestinal S9. CC[C@@H](C)OC(=O)[C@H](C)NP(=O)(OC[C@H]1OC[C@@H](n2ccc(N)nc2=O)O1)Oc1ccccc1 (single isomer, unassigned; dia-1) [18 dia-1]
6

Reported CLint Intestinal S9 for CC(C)OC(=O)[C@H](C)NP(=O)(OC[C@H]1OC[C@@H](n2ccc(=O)[nH]c2=O)O1)Oc1ccccc1 (some centres unmarked) : what is it?
6

I have this compound here, CC[C@@H](C)OC(=O)[C@H](C)NP(=O)(OC[C@H]1OC[C@@H](n2ccc(N)nc2=O)O1)Oc1ccc([Si](C)(C)C)cc1 (single isomer, unassigned; dia-1) [11 dia-1] , and I need its recorded CLint Intestinal S9.
6

Would you kindly share the measured CLint Intestinal S9 for C[C@H](NP(=O)(OC[C@H]1OC[C@@H](n2ccc(N)nc2=O)O1)Oc1cccc2ccccc12)C(=O)OCc1ccccc1 (single isomer, unassigned; dia-2) [9 dia-2] ?
127

====

Tested on: HepG2
Test: Cell cytotoxicity assay, HEPG2
Assay type: cell-based
Conditions: HepG2 cells, 5 days at 37° C., XTT dye
Give CC50 for every item shown.
Give just the number in nM; leave the unit off.

Suppose we examine the compound C[C@H](NP(=O)(OC[C@H]1OC[C@@H](n2ccc(N)nc2=O)O1)Oc1cccc2ccccc12)C(=O)OC1CCCC1 (single isomer, unassigned; dia-2) [22 dia-2] ; what CC50 value has been reported?
11

Please report the recorded CC50 for C[C@H](NP(=O)(OC[C@H]1OC[C@@H](n2ccc(N)nc2=O)O1)Oc1cccc2ccccc12)C(=O)OC1CCCC1 (single isomer, unassigned; dia-1) [22 dia-1] .
12

Report CC50 for CC[C@@H](C)OC(=O)[C@H](C)NP(=O)(OC[C@H]1OC[C@@H](n2ccc(N)nc2=O)O1)Oc1ccccc1 (single isomer, unassigned; dia-2) [18 dia-2] please.
65

Can you share its CC50? I mean this compound: COC(=O)[C@H](C)NP(=O)(OC[C@H]1OC[C@@H](n2ccc(N)nc2=O)O1)Oc1ccccc1 (single isomer, unassigned; dia-1) [26 dia-1]
1210

Bench note: what CC50 did CCC(CC)OC(=O)[C@H](C)NP(=O)(OC[C@H]1OC[C@@H](n2ccc(N)nc2=O)O1)Oc1ccccc1 (single isomer, unassigned; dia-1) [21 dia-1] show?
163

====

System: HepG2
Experiment: Cell cytotoxicity assay, HEPG2
Format: cell-based
Conditions: HepG2 cells, 5 days at 37° C., XTT dye
MEASUREMENT LABEL: CC50 (nM)
Reply numerically in nM, unit not repeated.

# CC50 lookup, item CCCC(CCC)COC(=O)[C@H](C)NP(=O)(OC[C@H]1OC[C@@H](n2ccc(N)nc2=O)O1)Oc1ccc(Br)cc1 (single isomer, unassigned; dia-1) [23 dia-1]
8.6

Please report the recorded CC50 for COC(=O)[C@H](C)NP(=O)(OC[C@H]1OC[C@@H](n2ccc(N)nc2=O)O1)Oc1ccc(Br)cc1 (single isomer, unassigned; dia-1) [27 dia-1] .
151

// CC50 lookup, key: CC(C)OC(=O)[C@H](C)NP(=O)(OC[C@H]1OC[C@@H](n2ccc(N)nc2=O)O1)Oc1cccc2ccccc12 (single isomer, unassigned; dia-1) [5 dia-1]
107
